Where these numbers come from: ChEMBL document CHEMBL1132079

- assay_system: Substance-K receptor (Cavia porcellus)
- assay: Antagonist activity against Neurokinin 2 (NK2) receptor from guinea pig ileum at a concentration of 1 ug/mL
- Format: functional, tissue-based
quantity_kind: inhibition

Request: # query: inhibition of entry NC(=O)C1(c2ccccc2)CCN(CC[C@@]2(c3ccc(Cl)c(Cl)c3)CN(C(=O)c3ccc4ccccc4n3)CO2)CC1
Response: 71%

Request: Given the compound COc1cc(C(=O)N2CO[C@](CCN3CCC(O)(c4cccnc4)CC3)(c3ccc(Cl)c(Cl)c3)C2)cc(OC)c1OC , what is its reported inhibition?
Response: 100%

Request: State the recorded inhibition for this entry: COc1cc(C(=O)N2CO[C@](CCN3CCC(n4c(O)nc5ccccc54)CC3)(c3ccc(Cl)c(Cl)c3)C2)cc(OC)c1OC
Response: 85%

Request: Entry NC(=O)C1(c2ccccc2)CCN(CC[C@@]2(c3ccc(Cl)c(Cl)c3)CN(C(=O)c3cnc4ccccc4n3)CO2)CC1 has what inhibition?
Response: 71%

Request: What does the data say about its inhibition? Entry: NC(=O)C1(c2ccccc2)CCN(CC[C@@]2(c3ccc(Cl)c(Cl)c3)CN(C(=O)c3ccccc3)CO2)CC1
Response: 87%

Request: Record request: inhibition value, item NC(=O)C1(c2ccccc2)CCN(CC[C@@]2(c3ccc(Cl)c(Cl)c3)CN(C(=O)c3cnccn3)CO2)CC1
Response: 47%

Request: Please report the recorded inhibition for COc1cc(C(=O)N2CO[C@](CCN3CCC4(CC3)SCc3ccccc34)(c3ccc(Cl)c(Cl)c3)C2)cc(OC)c1OC .
Response: 89%

Request: Using the record for COc1cc(C(=O)N2CO[C@](CCN3CCC(O)(c4ccccc4)CC3)(c3ccc(Cl)c(Cl)c3)C2)cc(OC)c1OC , report its inhibition.
Response: 58%

Request: Could you tell me which inhibition is on file for COc1ccc(S(=O)(=O)N2CO[C@](CCN3CCC(C(N)=O)(c4ccccc4)CC3)(c3ccc(Cl)c(Cl)c3)C2)cc1OC ?
Response: 10%

Request: Look up inhibition: COc1cc(C(=O)N2CO[C@](CCN3CCC(O)(c4ccccn4)CC3)(c3ccc(Cl)c(Cl)c3)C2)cc(OC)c1OC
Response: 76%

Request: Param item = NC(=O)C1(c2ccccc2)CCN(CC[C@@]2(c3ccc(Cl)c(Cl)c3)CN(C(=O)c3cccs3)CO2)CC1 ; retrieve measured inhibition.
Response: 83%

Request: Please give the measured inhibition for this compound: COc1cc(C(=O)N2CO[C@](CCN3CCC(C(=O)NCc4ccccc4)CC3)(c3ccc(Cl)c(Cl)c3)C2)cc(OC)c1OC
Response: 64%

Request: Requested read-out: inhibition. Entry: Cc1ccc(C(=O)N2CO[C@](CCN3CCC(C(N)=O)(c4ccccc4)CC3)(c3ccc(Cl)c(Cl)c3)C2)cc1
Response: 88%

Request: Give the measured inhibition of Cc1cc(C)cc(C(=O)N2CO[C@](CCN3CCC(C(N)=O)(c4ccccc4)CC3)(c3ccc(Cl)c(Cl)c3)C2)c1 .
Response: 90%

Request: Which inhibition is listed for COc1cc(C(=O)N2CO[C@](CCN3CCC(C(C)=O)(c4ccccc4)CC3)(c3ccc(Cl)c(Cl)c3)C2)cc(OC)c1OC ?
Response: 57%

Request: Query: inhibition; subject: COc1cc(C(=O)N2CO[C@](CCN3CCC4(CC3)CN(S(C)(=O)=O)c3ccccc34)(c3ccc(Cl)c(Cl)c3)C2)cc(OC)c1OC
Response: 91%

Request: I would be grateful if you could share the reported inhibition for COc1cc(C(=O)N2CO[C@](CCN3CCC(C(N)=O)(c4ccccn4)CC3)(c3ccc(Cl)c(Cl)c3)C2)cc(OC)c1OC .
Response: 83%

Request: Could you tell me which inhibition is on file for COc1cccc(OC)c1C(=O)N1CO[C@](CCN2CCC(C(N)=O)(c3ccccc3)CC2)(c2ccc(Cl)c(Cl)c2)C1 ?
Response: 83%

Request: I am curious: what inhibition value has been reported for COc1cc(C(=O)N2CO[C@](CCN3CCC(C(=O)Nc4ccccc4)CC3)(c3ccc(Cl)c(Cl)c3)C2)cc(OC)c1OC ?
Response: 72%

Request: Return reported inhibition; argument: NC(=O)C1(c2ccccc2)CCN(CC[C@@]2(c3ccc(Cl)c(Cl)c3)CN(C(=O)c3cc4ccccc4o3)CO2)CC1
Response: 59%

Request: Using the record for CC(=O)Nc1ccc(C(=O)N2CO[C@](CCN3CCC(C(N)=O)(c4ccccc4)CC3)(c3ccc(Cl)c(Cl)c3)C2)cc1 , report its inhibition.
Response: 85%

Request: Looking for the measured inhibition of COc1cc(C(=O)N2CO[C@](CCN3CCC4(CC3)CN(Cc3ccccc3)C(=O)O4)(c3ccc(Cl)c(Cl)c3)C2)cc(OC)c1OC , can you help?
Response: 44%

Request: Please look up its inhibition: COc1cc(C(=O)N2CO[C@](CCN3CCC4(CC3)CN(c3ccccc3)C(=O)O4)(c3ccc(Cl)c(Cl)c3)C2)cc(OC)c1OC
Response: 12%

Request: # inhibition lookup, item N#Cc1ccc(C(=O)N2CO[C@](CCN3CCC(C(N)=O)(c4ccccc4)CC3)(c3ccc(Cl)c(Cl)c3)C2)cc1
Response: 79%

Request: What value of measured inhibition is listed for COc1cc(C(=O)N2CO[C@](CCN3CCC(NC(C)=O)(c4ccccc4)CC3)(c3ccc(Cl)c(Cl)c3)C2)cc(OC)c1OC ?
Response: 62%

Request: I am curious: what inhibition value has been reported for COC(=O)c1ccc(C(=O)N2CO[C@](CCN3CCC(C(N)=O)(c4ccccc4)CC3)(c3ccc(Cl)c(Cl)c3)C2)cc1 ?
Response: 85%

Request: // inhibition lookup, key: COc1cc(C(=O)N2CO[C@](CCN3CCC(NC(=O)c4ccccc4)CC3)(c3ccc(Cl)c(Cl)c3)C2)cc(OC)c1OC
Response: 44%

Request: I'd like to know its inhibition. The compound in question is NC(=O)C1(c2ccccc2)CCN(CC[C@@]2(c3ccc(Cl)c(Cl)c3)CN(C(=O)c3cccnc3)CO2)CC1
Response: 48%

Request: So what does the record say about inhibition for COc1cc(C(=O)N2CO[C@](CCN3CCN(c4ccccn4)CC3)(c3ccc(Cl)c(Cl)c3)C2)cc(OC)c1OC ?
Response: 42%
